Entries annotated with measured MIC
Test system: Klebsiella pneumoniae
method summary: Antibacterial activity against multidrug resistant Klebsiella pneumoniae ATCC13883 assessed as inhibition of bacterial growth incubated for 24 hrs in M9-MOPS medium by twofold serial dilution method
Assay type: functional

# compound, modifier sign, MIC / µM
measured = [
    ("O=C1O[C@@H](CO)CN1c1ccc(-c2ccncc2)c(F)c1", "=", 100),
    ("C[n+]1ccc(-c2ccc(-c3ccc(N4C[C@H](CO)OC4=O)cc3F)cc2)cc1", "=", 100),
    ("CC(=O)NC[C@H]1CN(c2ccc(N3CCOCC3)c(F)c2)C(=O)O1 [LINEZOLID]", "≥", 200),
    ("O=C1O[C@@H](CO)CN1c1ccc(-c2cccc(CO)c2)c(F)c1", "=", 200),
    ("O=C1O[C@@H](CO)CN1c1ccc(-c2cccnc2)c(F)c1", "=", 200),
    ("NCc1ccc(-c2ccc(N3C[C@H](CO)OC3=O)cc2F)cc1O", "=", 50),
    ("NCc1ccc(-c2ccc(N3C[C@H](CO)OC3=O)cc2F)cc1", "=", 100),
]
